Recorded values, source patent US20220380371A1.

molecules and their reported pIC50
biological target: wild type MLL1 four-member complex (MLL1-4C) (Homo sapiens); assay: MLL1 LC-MS Assay; format: biochemical; conditions: read-out: LCMS
pIC50: −log10 of the molar value.

Use the examples below as a reference point.
INSERT INTO assay_data (molecule, target_or_system, endpoint_result) VALUES
  ('Nc1ncnc2c1ncn2Cc1c(N2CC[C@](N)(C(=O)NC3CC3)C2)ccc(F)c1CN1CCC(F)(F)CC1', 'wild type MLL1 four-member complex (MLL1-4C) (Homo sapiens)', '7.00 to 7.30'),
  ('Nc1ncnc2c1ncn2Cc1c([C@@H](O)C(F)(F)F)cc(Cl)cc1N1CC[C@](N)(C(=O)NC2CC2)C1', 'wild type MLL1 four-member complex (MLL1-4C) (Homo sapiens)', '7.00 to 7.30'),
  ('CN(C)Cc1c(Cl)cc(Cl)c(N2CC[C@](N)(C(=O)NC3CC3)C2)c1Cn1cnc2c(N)ncnc21', 'wild type MLL1 four-member complex (MLL1-4C) (Homo sapiens)', '< 7.00');

Now examine the next entry.
In plain terms, Nc1ncnc2c1ncn2Cc1c(N2CC[C@](N)(C(=O)NCC3CC3(F)F)C2)ccc(F)c1C(F)(F)F (stereo partly shown) has a documented pIC50 of > 7.30

----------
tested on: H3K4me3 in MV4-11 cells; assay: MV4-11 H3K4me3 Cellular ELISA Assay; type: cell-based; details: Homo sapiens, MV4-11, 48 h
Measured IC50, listed per entry.

Example results:
INSERT INTO results (compound, readout_kind, endpoint_result) VALUES
  ('Nc1ncnc2c1ncn2Cc1c(N2CC[C@](N)(C(=O)NC3CCOC3)C2)ccc(F)c1C(F)(F)F (some centres unmarked)', 'IC50', '< 1.9 µM'),
  ('Nc1ncnc2c1ncn2Cc1c(N2CC[C@](N)(C(=O)N3CCC[C@@H](O)C3)C2)ccc(F)c1C(F)(F)F', 'IC50', '< 1.9 µM'),
  ('COCc1c(F)ccc(N2CC[C@](N)(C(=O)NC3CC3)C2)c1Cn1cnc2c(N)ncnc21', 'IC50', '< 1.9 µM');

Next, consider the following compound.
Entry `N#CC1CN(C(=O)[C@@]2(N)CCN(c3ccc(F)c(C(F)(F)F)c3Cn3cnc4c(N)ncnc43)C2)C1` ; IC50 = < 1.9 µM

----------
Entries annotated with measured pIC50
tested on: MV4-11 cells; assay: MV4-11 6-Day Cell Growth CTG (CellTiter-Glo) Assay; assay type: cell-based; conditions: Homo sapiens, MV4-11, 144 h, MV4-11 cell growth CellTiter-Glo, 6 days
pIC50: −log10 of the molar value.

# count of solved cases: 5
INSERT INTO measurements (compound, readout_kind, endpoint_result) VALUES
  ('Nc1ncnc2c1ncn2Cc1c(N2CC[C@](N)(C(=O)NC3CC3)C2)ccc(F)c1Br', 'pIC50', '> 5.70'),
  ('Nc1ncnc2c1ncn2Cc1c(N2CC[C@](N)(C(=O)NC3CC3)C2)cc(-c2cccs2)cc1C(F)(F)F', 'pIC50', '> 5.70'),
  ('COC[C@@]1(N)CCN(c2ccc3ccccc3c2Cn2cnc3c(N)ncnc32)C1', 'pIC50', '> 5.70'),
  ('Nc1ncnc2c1ncn2Cc1c(N2CC[C@](N)(C(=O)NC3CC3)C2)ccc(F)c1CO', 'pIC50', '5.52 to 5.70'),
  ('Nc1ncnc2c1ncn2Cc1c(N2CC[C@](N)(C(=O)NC3CC3)C2)ccc(F)c1C(O)C(F)(F)F (single isomer, unassigned)', 'pIC50', '5.52 to 5.70');

Per the record, `CS[C@H]1C[C@H](NC(=O)[C@@]2(N)CCN(c3ccc(F)c(C(F)(F)F)c3Cn3cnc4c(N)ncnc43)C2)C1` has pIC50 of > 5.70

Record `CC(C)(C#N)CNC(=O)[C@@]1(N)CCN(c2ccc(F)c(C(F)(F)F)c2Cn2cnc3c(N)ncnc32)C1` , field pIC50: > 5.70
